# Test summary: qHTS assay to identify small molecule agonists of the AP-1 signaling pathway - cell viability counter screen (AID 1159525); note: nearly all actives have a fitted effect of over 55% in size
# Conditions used: ME-180 (cervical carcinoma) AP-1-bla cells viability, ATP luminescence, 5 h; series mostly up to 76.8 µM
Inconclusive results are not listed. The source made the active and inactive calls. Calls come from the whole dose curve.

[
  {
    "Compound": "C[C@]12CC[C@@H]3c4ccc(O)cc4C[C@@H](CCCCCCCCCS(=O)CCCC(F)(F)C(F)(F)F)[C@H]3[C@@H]1CC[C@@H]2O (some centres undefined)",
    "outcome": "inactive"
  },
  {
    "Compound": "Cc1cccc(C)c1O",
    "outcome": "inactive"
  },
  {
    "Compound": "NC(=O)NO",
    "outcome": "inactive"
  },
  {
    "Compound": "COCC(C)N (centres undefined)",
    "outcome": "inactive"
  },
  {
    "Compound": "CCCCOC(=O)CCCCCCCCC(=O)OCCCC",
    "outcome": "inactive"
  },
  {
    "Compound": "CC(=O)c1ccc(S(=O)(=O)NC(=O)NC2CCCCC2)cc1",
    "outcome": "inactive"
  },
  {
    "Compound": "OCCCc1ccccc1",
    "outcome": "inactive"
  },
  {
    "Compound": "O=C(O)CCCCC1CCSS1 (centres undefined)",
    "outcome": "inactive"
  },
  {
    "Compound": "COC(=O)c1ccc(O)cc1",
    "outcome": "inactive"
  },
  {
    "Compound": "C/C=C/c1ccc(O)c(OC)c1",
    "outcome": "inactive"
  },
  {
    "Compound": "CCCCCCCCCCCCCC(=O)OC(C)C",
    "outcome": "inactive"
  },
  {
    "Compound": "CCCCOCCOCCSC#N",
    "outcome": "inactive"
  },
  {
    "Compound": "CC(=O)/C=C/C1=C(C)CCCC1(C)C",
    "outcome": "inactive"
  },
  {
    "Compound": "NC(=O)N1c2ccccc2C=Cc2ccccc21",
    "outcome": "inactive"
  },
  {
    "Compound": "c1ccc2[nH]c(-c3cscn3)nc2c1",
    "outcome": "inactive"
  },
  {
    "Compound": "COc1cc2c(c(OC)c1OC)-c1ccc(OC)c(=O)cc1[C@@H](NC(C)=O)CC2",
    "outcome": "inactive"
  },
  {
    "Compound": "Cc1cccc(Nc2cc(Cl)nc(SCC(=O)O)n2)c1C",
    "outcome": "inactive"
  },
  {
    "Compound": "COc1ccc(C(=O)c2ccccc2)c(O)c1",
    "outcome": "inactive"
  },
  {
    "Compound": "CC1=NN(c2ccccc2)C(=O)C1",
    "outcome": "inactive"
  },
  {
    "Compound": "CN(C)Cc1cc(CN(C)C)c(O)c(CN(C)C)c1",
    "outcome": "inactive"
  },
  {
    "Compound": "COCCOCCOC",
    "outcome": "inactive"
  },
  {
    "Compound": "COc1cc(C=O)ccc1O",
    "outcome": "inactive"
  },
  {
    "Compound": "CC(C)(C)NCC(O)c1ccc(O)c(CO)c1 (centres undefined)",
    "outcome": "inactive"
  },
  {
    "Compound": "O=c1c(-c2ccc(O)cc2)coc2cc(O)cc(O)c12",
    "outcome": "inactive"
  },
  {
    "Compound": "CC(C)Cc1ccc(C(C)C(=O)O)cc1 (centres undefined)",
    "outcome": "inactive"
  },
  {
    "Compound": "CCc1cc(C(N)=S)ccn1",
    "outcome": "inactive"
  },
  {
    "Compound": "CC(C)CC(C)CC(O)CC(C)C (centres undefined)",
    "outcome": "inactive"
  },
  {
    "Compound": "CC(O)COc1ccccc1 (centres undefined)",
    "outcome": "inactive"
  },
  {
    "Compound": "NC(N)=NC(N)=NCCc1ccccc1",
    "outcome": "inactive"
  }
]
